- recorded_conditions: pH 2.7
endpoint_name: logp [b]

# count of solved cases: 2
smiles_code=CN(CC1CC1)C(=O)c1cc(Nc2ncc(Cl)c(NC3CC3)n2)cs1 endpoint_name="logp [b]" result=2.08[b]
smiles_code=CCN(CC)C(=S)c1cc(Nc2ncc(Cl)c(NC3CC3)n2)cs1 endpoint_name="logp [b]" result=2.55[b]

Record logp [b] per entry; entries follow.
1. CC(C)(C)NC(=O)c1cc(Nc2ncc(Cl)c(NC3CC3)n2)cs1
2. O=C(NO)c1cc(Nc2ncc(Cl)c(NC3CC3)n2)cs1
3. FC(F)CNc1nc(Nc2ccsc2)ncc1Br
4. Brc1cnc(Nc2ccsc2)nc1NC1CC1
5. CSc1ccc(Nc2ncc(Cl)c(NC3CC3)n2)s1
6. Clc1cnc(Nc2ccsc2)nc1NCC1CC1

2.11[b]
2.1[b]
1.99[b]
1.71[b]
2.84[b]
2.33[b]

For each of the items listed, what is its logp [b]?
1. S=C(c1cc(Nc2ncc(Cl)c(NC3CC3)n2)cs1)N1CCCC1
2. FC(F)(F)c1cnc(Nc2ccsc2)nc1NC1CC1

2.31[b]
2.69[b]

Source listed as patent US20110237612A1.
